Test system: Staphylococcus haemolyticus CNCM I-4170
test-method-notes: Protocol A: in-vitro malodor inhibition (free thiol groups from Cys-Gly precursor, DTNB absorbance at 412 nm)
Format: cell-based
conditions: Staphylococcus haemolyticus, CNCMI4170; 0.0012 w/v % in medium; read-out: Ingredient Malodor Inhibition Value (%)
Please go through the items and note down their inhibition at 0.0012 %.
Numbers only, in %.

Solved entries (count: 8):
C=CC(C)(O)CCC=C(C)CCC=C(C)C (stereo not drawn) | 0
CC(C)(C)c1ccc(CCC=O)cc1 | 4.15
CC1C(C)(C)C2=C(C(=O)CCC2)C1(C)C (stereo not drawn) | 0
O=C1CCCCCCCCCCC(=O)OCCO1 | 0
CC(CCO)CC(C)(C)C (stereo not drawn) | 0
CC/C(=C\C[C@H]1CC=C(C)C1(C)C)CO | 0
CC(C=O)Cc1ccc(C(C)(C)C)cc1 (stereo not drawn) | 0.9
CC(C)(C)C1CCC(O)CC1 (stereo not drawn) | 0

// moving on: another record for inhibition at 0.0012 %
Recorded inhibition at 0.0012 % (compound "CC(C)(O)CCC1CCCCC1" ): 0

---

System: Staphylococcus haemolyticus CNCM I-4170
test-method-notes: Protocol A: in-vitro malodor inhibition (free thiol groups from Cys-Gly precursor, DTNB absorbance at 412 nm)
Type: cell-based
conditions: Staphylococcus haemolyticus, CNCMI4170; Table 2; 0.0012 w/v % in medium; read-out: Ingredient Malodor Inhibition Value (%)
Where a name gives a salt, the structure may show the parent alone.
quantity-name: inhibition at 0.0012 %
Number first, unit second.

Solved entries (count: 5):
c1nc2c(o1)CCCCCCCCCC2 | 0%
CC(C)CCCC(C)CC=O (stereo not drawn) [3,7-Dimethyloctanal] | 0%
CCCCCCC/C=C\CCC=O [(Z)-4-Dodecenal] | 0%
CCCCCCC/C=C/C=O [(E)-2-Decenal] | 22%
CC1=CC2CC(C=O)C1CC2C(C)C (stereo not drawn) | 18.9%

Would you mind giving inhibition at 0.0012 % for every compound in the list below?
1. CC1(C)C2CC=C(CCC=O)C1C2 (stereo not drawn)
2. CCCCC/C=C/CCC=O [(E)-4-Decenal]

0%
22%

Would you mind giving inhibition at 0.0012 % for every compound in the list below?
1. CCCCCCCCCCC=CC=O [2-Tridecenal (ethyl citrate solution), 2-Tridecenal]
2. C=CCCCCCCCCC=O [10-Undecenal]
3. CC=CCCCCCCCC=O [9-Undecenal]
4. CCCCCCCCC=O [Nonanal]
5. CCCCCCCCC/C=C/C=O [(E)-2-Dodecenal]

1: 29%; 2: 3%; 3: 0%; 4: 5.26%; 5: 29.7%

---

Please go through the items and note down their inhibition at 0.0125 %.
System: Staphylococcus haemolyticus CNCM I-4170
test-method-notes: Protocol A: in-vitro malodor inhibition (free thiol groups from Cys-Gly precursor, DTNB absorbance at 412 nm)
Format: cell-based
conditions: Staphylococcus haemolyticus, CNCMI4170; Table 2; 0.0125 w/v % in medium; read-out: Ingredient Malodor Inhibition Value (%)
Where a name gives a salt, the structure may show the parent alone.

Solved entries (count: 3):
CC=CCCCCCCCC=O [9-Undecenal] | 89%
CC(C)CCCC(C)CC=O (stereo not shown) [3,7-Dimethyloctanal] | 66.7%
CCCCCCC/C=C/C=O [(E)-2-Decenal] | 90.1%

Recorded inhibition at 0.0125 % (compound CCCCCCCCCCC=CC=O [2-Tridecenal (ethyl citrate solution), 2-Tridecenal] ): 81%
